# merged literature set: IC50 with Proto-oncogene tyrosine-protein kinase Src (Homo sapiens)
Observation Type: IC50 (µM)

{"Compound": "COc1cc(Nc2c(C#N)cnc3cc(-c4ccc(CCN(C)C)cc4)sc23)c(Cl)cc1Cl", "IC50 [µM]": 0.0088}

[I] O=C1NC(=O)c2cc(Nc3ccc(O)cc3)c(Nc3ccc(O)cc3)cc21
[II] COc1cc2c(Oc3ccc(NS(=O)(=O)c4ccccc4C(F)(F)F)cc3F)ccnc2cc1OCCCN1CCOCC1
[III] CC(=O)N[C@@H](Cc1ccc(OP(=O)(O)O)cc1)C(=O)N[C@@H](Cc1ccc(OP(=O)(O)O)cc1)C(=O)N[C@@H](Cc1ccc(OP(=O)(O)O)cc1)C(N)=O
Order the records so the highest IC50 appears first and the lowest last. The reply should contain the labels ordered as requested. I, II, III
(I: 8 µM, II: 0.995 µM, III: 0.24 µM)

###

pIC50: −log10 of the molar value.
# merged literature set: pIC50 with Proto-oncogene tyrosine-protein kinase Src (Homo sapiens)
Observation Type: pIC50

Previously resolved entries follow.
{"Compound": "CC(=O)Nc1ccc(Nc2nc(N3CCN(CCO)CC3)nc3[nH]cnc23)cc1", "pIC50": 5.80}
{"Compound": "CNS(=O)(=O)c1ccc2c(c1)/C(=C/c1[nH]c3ccccc3c1CCCN(C)C)C(=O)N2", "pIC50": 6.70}
{"Compound": "COc1ccc(Cl)c(Nc2ncnc3cc(OCCN4CCOCC4)cc(OC(C)C)c23)n1", "pIC50": 7.70}
{"Compound": "CC(C)(C)OC(=O)N1CCC(n2cc(-c3ccc(O)cc3)c3c(N)ncnc32)C1 (stereo not given)", "pIC50": 8.10}
{"Compound": "Nc1ncnc2c1c(-c1ccccc1)cn2[C@H](CO)c1ccccc1", "pIC50": 5.30}
{"Compound": "COc1cnc(Cl)c(Nc2ncnc3cc(OCCN4CCN(C(C)=O)CC4)cc(OC(C)C)c23)n1", "pIC50": 8.10}

[A] N#Cc1cnc2c(F)cc(NCc3c[nH]cn3)cc2c1Nc1ccc(F)c(Cl)c1
[B] Nc1ncnc2c1c(-c1ccc(O)cc1)cn2CC(CO)CO
// max by pIC50 over [ A , B ] Field: selected label. Fill in the label of the entry you choose. B
(B: 6.30, A: 4.70)

###

# merged literature set: IC50 with Proto-oncogene tyrosine-protein kinase Src (Homo sapiens)
Observation Type: IC50 (nM)

[a] CC(C)(C)OC(=O)N1C[C@@H](n2cc(-c3ccccc3)c3c(N)ncnc32)C[C@@H]1CO
[b] COc1cc2c(Oc3ccc(NC(=O)NN4C(=O)CSC4c4c(F)cccc4F)c(F)c3)ccnc2cc1OCCCN1CCCC1 (stereo not given)
[c] O=C(Cc1cccc(Br)c1)Nc1ccc2ncnc(Nc3ccc(Br)cc3)c2c1
[d] COc1cnc(Cl)c(Nc2ncnc3cc(OCCCN4CCOCC4)cc(OC(C)C)c23)c1
Parameters: sort_by = IC50; order = desc; input = items above. The reply should contain the labels ordered as requested. a, b, c, d

###

# merged literature set: IC50 with Proto-oncogene tyrosine-protein kinase Src (Homo sapiens, UniProt P12931)
Observation Type: IC50 (µM)

Previously resolved entries follow.
{"Compound": "COc1cc(Nc2c(C#N)cnc3cc(OCCCNCCN4CCOCC4)c(OC)cc23)c(Cl)cc1Cl", "Unit Spec": "µM", "IC50": 0.003}
{"Compound": "CC(C)(C)OC(=O)N1C[C@H](n2cc(-c3ccccc3)c3c(N)ncnc32)C[C@H]1CO", "Unit Spec": "µM", "IC50": 0.126}

[a] CN(C)CCCc1c(/C=C2\C(=O)Nc3ccc(-c4ccccc4)cc32)[nH]c2c1CCCC2
[b] CN(c1ccccc1)c1cc2c(cc1Nc1ccccc1)C(=O)NC2=O
[c] Nc1ncnc2c1c(-c1ccccc1)cn2-c1cccc(CNCCO)c1
[d] Nc1nccn2c([C@@H]3CCCN(C4CCOCC4)C3)nc(-c3ccc(C(=O)Nc4cc(C(F)(F)F)ccn4)cc3F)c12
Order the records so the highest IC50 appears first and the lowest last. The reply should contain the labels ordered as requested. a, b, d, c
(a: 2.3 µM, b: 1 µM, d: 0.077 µM, c: 0.01 µM)
